Quick reference for hNK2R, IP3 Efficacy among some molecules
Molecular target: hNK2R (Homo sapiens, UniProt P21452)
Construct: host or cells: COS-7
Sequence (P21452 1-398): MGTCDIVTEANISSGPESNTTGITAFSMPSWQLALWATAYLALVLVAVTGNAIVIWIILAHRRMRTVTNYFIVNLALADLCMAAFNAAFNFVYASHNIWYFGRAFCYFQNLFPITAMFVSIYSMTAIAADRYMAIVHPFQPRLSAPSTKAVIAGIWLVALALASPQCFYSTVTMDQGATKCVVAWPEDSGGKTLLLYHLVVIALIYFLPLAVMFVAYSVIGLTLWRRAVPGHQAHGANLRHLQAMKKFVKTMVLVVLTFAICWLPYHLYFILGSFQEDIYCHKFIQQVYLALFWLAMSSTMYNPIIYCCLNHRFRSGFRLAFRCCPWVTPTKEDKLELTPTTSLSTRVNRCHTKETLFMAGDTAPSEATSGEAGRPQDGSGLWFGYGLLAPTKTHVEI
Experiment: IP3 assay (inositol trisphosphate, 3H-myoinositol) in transiently transfected COS-7 cells
Assay type: cell-based
Details: COS-7 cells; figure legends: percent of 10^-6 M NKA
Numbered stars: 1 amine (or outer) side, 2 acyl side, 3 side chain; on linkers, the order of the positions; unused ones are H or OH. Square brackets hold non-standard residues; d marks the D form. Peptide text beside a SMILES is read from it. * marks the point of attachment. C18 diacid = O=C(O)CCCCCCCCCCCCCCCCC(=O)*; γGlu = O=C(O)[C@H](CCC(=O)[*:2])N[*:1]; NMeL = CN[C@@H](CC(C)C)C(=O)O; Nle = CCCC[C@H](N)C(=O)O; AEEA = NCCOCCOCC(=O)O; Aib = CC(C)(N)C(=O)O
Answer format: numeric, % implied, no suffix.

molecule: CCCC[C@H](NC(=O)[C@H](CC(C)C)N(C)C(=O)CNC(=O)[C@@H](NC(=O)[C@H](Cc1ccccc1)NC(=O)[C@H](CO)NC(=O)[C@H](CC(=O)O)NC(=O)[C@@H](NC(=O)[C@H](CCCCN)NC(=O)COCCOCCNC(=O)COCCOCCNC(=O)CC[C@H](NC(=O)CCCCCCCCCCCCCCCCC(=O)O)C(=O)O)[C@@H](C)O)C(C)C)C(N)=O [compound 312]
hNK2R, IP3 Efficacy / %: 65

QUERY: # get_value(readout= hNK2R, IP3 Efficacy, system= hNK2R (Homo sapiens, UniProt P21452)) for CCCC[C@H](NC(=O)[C@H](CC(C)C)N(C)C(=O)CNC(=O)[C@@H](NC(=O)[C@H](Cc1ccccc1)NC(=O)[C@H](CCCCNC(=O)COCCOCCNC(=O)COCCOCCNC(=O)CC[C@H](NC(=O)CCCCCCCCCCCCCCCCC(=O)O)C(=O)O)NC(=O)[C@@H](N)CC(=O)O)C(C)C)C(N)=O [compound 307, Asp;Lys*;Phe;Val;Gly;NmLeu;Nle;NH2]
RESULT: 80

QUERY: Now the molecule CCCC[C@H](NC(=O)[C@H](CC(C)C)NC(=O)C(C)(C)NC(=O)[C@@H](NC(=O)[C@H](Cc1ccccc1)NC(=O)[C@H](CCCCN)NC(=O)[C@H](CC(=O)O)NC(=O)COCCOCCNC(=O)COCCOCCNC(=O)CC[C@H](NC(=O)CCCCCCCCCCCCCCCCC(=O)O)C(=O)O)C(C)C)C(N)=O [compound 373, *Asp;Lys;Phe;Val;Aib;Leu;Nle;NH2] ({C18 diacid-γGlu-AEEA-AEEA}-DKFV[Aib]L[Nle]-NH2)
RESULT: 89

QUERY: Now the molecule CCCC[C@H](NC(=O)[C@H](CC(C)C)N(C)C(=O)CNC(=O)[C@@H](NC(=O)[C@H](Cc1ccccc1)NC(=O)[C@H](CCCCN)NC(=O)[C@@H](N)CC(=O)O)C(C)C)C(N)=O [compound 375, Asp;Lys;Phe;Val;Gly;NmLeu;Nle;NH2]
RESULT: 100

QUERY: Now the molecule CCCC[C@H](NC(=O)[C@H](CC(C)C)N(C)C(=O)CNC(=O)[C@@H](NC(=O)[C@H](Cc1ccccc1)NC(=O)[C@H](CCCCN)NC(=O)[C@H](CC(=O)O)NC(=O)COCCOCCNC(=O)COCCOCCNC(=O)CC[C@H](NC(=O)CCCCCCCCCCCCCCCCC(=O)O)C(=O)O)[C@@H](C)O)C(N)=O [compound 387, *Asp;Lys;Phe;Thr;Gly;NmLeu;Nle;NH2] ({C18 diacid-γGlu-AEEA-AEEA}-DKFTG[NMeL][Nle]-NH2)
RESULT: 100
